System: Staphylococcus aureus
Test: Antibacterial activity against Staphylococcus aureus ATCC 29213 after 24 hrs by microbroth dilution method
Assay type: functional
Conditions: ATCC 29213, 24 h
MEASURE NAME: MIC (µg/mL)
Your answer is read as µg/mL, so omit the unit and give the number.

Input: Give its MIC value. Item: CCOP(=O)(OCC)C(Nc1ncccn1)c1ccc(OC)cc1 (centres undefined)
Output: 256

Input: Same for CCOP(=O)(OCC)C(Nc1ncccn1)c1ccc(Cl)cc1Cl (centres undefined)
Output: 64

====

// MIC lookup, one value per entry
Test system: Staphylococcus aureus
Test: Antibacterial activity against methicillin resistant Staphylococcus aureus after 24 hrs by microbroth dilution method
Assay type: functional

Examples with their reported MIC follow.
C#CCn1c(CCCC)nc(Cl)c1C(Nc1ncccn1)P(=O)(OCC)OCC (stereo unspecified)	128 µg/mL
CCCCCn1c(CCCC)nc(Cl)c1C(Nc1ncccn1)P(=O)(OCC)OCC (stereo unspecified)	4 µg/mL

Input: Give its MIC value. Item: CCOP(=O)(OCC)C(Nc1ncccn1)c1ccc(C)cc1 (stereo unspecified)
Output: 128 µg/mL

Input: Same for CCOP(=O)(OCC)C(Nc1ncccn1)c1ccc(Cl)cc1 (stereo unspecified)
Output: 64 µg/mL

Input: Same for CCOP(=O)(OCC)C(Nc1ncccn1)c1ccc2c(c1)c1cc(C=O)ccc1n2CC (stereo unspecified)
Output: 128 µg/mL

Input: Same for CCOP(=O)(OCC)C(Nc1ncccn1)c1ccc(OC)cc1 (stereo unspecified)
Output: 256 µg/mL

====

System: Staphylococcus aureus
Experiment: Antibacterial activity against Staphylococcus aureus ATCC 29213 after 24 hrs by microbroth dilution method
Assay type: functional
Settings: ATCC 29213, 24 h
MEASURE NAME: MIC
Include the unit after the number when you answer.

Examples with their reported MIC follow.
C#CCn1c(CCCC)nc(Cl)c1C(Nc1ncccn1)P(=O)(OCC)OCC (configuration not stated)	256 µg/mL
CCCCc1nc(Cl)c(C(Nc2ncccn2)P(=O)(OCC)OCC)n1CC (configuration not stated)	256 µg/mL
CCCCc1nc(Cl)c(C(Nc2ncccn2)P(=O)(OCC)OCC)n1CCC (configuration not stated)	128 µg/mL
CCOP(=O)(OCC)C(Nc1ncccn1)c1ccc(C)cc1 (configuration not stated)	256 µg/mL
CCOP(=O)(OCC)C(Nc1ncccn1)c1ccc(Cl)cc1 (configuration not stated)	256 µg/mL
O=[N+]([O-])c1ccc(C(Nc2ncccn2)P(=O)(O)O)cc1 (configuration not stated)	128 µg/mL
CCOP(=O)(OCC)C(Nc1ncccn1)c1ccccc1Cl (configuration not stated)	128 µg/mL
CCn1cc(C(=O)O)c(=O)c2cc(F)c(N3CCNCC3)cc21	2 µg/mL
CCOP(=O)(OCC)C(Nc1ncccn1)c1ccc([N+](=O)[O-])cc1 (configuration not stated)	256 µg/mL
CCOP(=O)(OCC)C(Nc1ncccn1)c1cn(CC)c2ccccc12 (configuration not stated)	256 µg/mL

Input: Give its MIC value. Item: CCOP(=O)(OCC)C(Nc1ncccn1)c1c[nH]c2ccccc12 (configuration not stated)
Output: 128 µg/mL

Input: Same for CCOP(=O)(OCC)C(Nc1ncccn1)c1ccc(F)cc1 (configuration not stated)
Output: 256 µg/mL
